Tested on: SR leukemia
Assay: NCI tumour cell line growth inhibition, 48 h
Reported Endpoint: TGI

Worked cases, answers included:
Compound	TGI
O=c1c2ccccc2n2nnc3ccc(NCCCNCCNCCCNc4ccc5nnn6c7ccccc7c(=O)c4c56)c1c32	> 50 µM
Cc1ccc(S(=O)(=O)NC(=O)NCCC(=O)O)cc1	> 100 µM
O=C(NC1(C(=O)NNc2nnc(-c3ccccc3)c(-c3ccccc3)n2)C(c2ccccc2)C(c2ccccc2)=NN1c1ccccc1)c1ccccc1 (centres undefined)	> 100 µM

Continue with the compound presented below.
I have this compound here, NC(c1ccccc1)(C(F)(F)F)P1(=O)OC(=O)c2ccccc2O1 (centres undefined) , and I need its recorded TGI. > 100 µM
